Please respond with reported inhibition at 1 µM for every item in the list.
target or system: Voltage-dependent L-type calcium channel subunit alpha-1C (Oryctolagus cuniculus)
assay notes: Antagonist activity at rabbit Cav1.2 expressed in tsA201 cells assessed as inhibition of voltage pulse-induced calcium current at 1000 nM by whole-cell patch-clamp recording
State the answer as a number, implicitly in %.

Input line: Given CCOC(=O)C1=C(C)NC(C)=C(C(=O)OCC)C1c1ccc(-c2cccs2)s1 , state its recorded inhibition at 1 µM.
Output line: 35

Input line: Reported inhibition at 1 µM for CCOC(=O)C1=C(CC)NC(C)=C(C(=O)OC)C1c1ccc([N+](=O)[O-])cc1 (stereo not given) : what is it?
Output line: 28

Input line: Fill in: inhibition at 1 µM of CCOC(=O)C1=C(C)N(C)C(C)=C(C(=O)OCC)C1c1cccc([N+](=O)[O-])c1 is ___
Output line: 35

Input line: Which measured inhibition at 1 µM value corresponds to CCOC(=O)C1=C(C)NC(C)=C(C(=O)OC)C1c1ccc([N+](=O)[O-])cc1 (stereo not given) ?
Output line: 48

Input line: What measured inhibition at 1 µM goes with CC1=C(C(=O)OC(C)(C)C)C(c2ccc([N+](=O)[O-])cc2)C(C(=O)OC(C)(C)C)=C(C)N1 ?
Output line: 36

* * *

target or system: Voltage-dependent L-type calcium channel subunit alpha-1C (Oryctolagus cuniculus, UniProt P15381)
Sequence (P15381 whole entry): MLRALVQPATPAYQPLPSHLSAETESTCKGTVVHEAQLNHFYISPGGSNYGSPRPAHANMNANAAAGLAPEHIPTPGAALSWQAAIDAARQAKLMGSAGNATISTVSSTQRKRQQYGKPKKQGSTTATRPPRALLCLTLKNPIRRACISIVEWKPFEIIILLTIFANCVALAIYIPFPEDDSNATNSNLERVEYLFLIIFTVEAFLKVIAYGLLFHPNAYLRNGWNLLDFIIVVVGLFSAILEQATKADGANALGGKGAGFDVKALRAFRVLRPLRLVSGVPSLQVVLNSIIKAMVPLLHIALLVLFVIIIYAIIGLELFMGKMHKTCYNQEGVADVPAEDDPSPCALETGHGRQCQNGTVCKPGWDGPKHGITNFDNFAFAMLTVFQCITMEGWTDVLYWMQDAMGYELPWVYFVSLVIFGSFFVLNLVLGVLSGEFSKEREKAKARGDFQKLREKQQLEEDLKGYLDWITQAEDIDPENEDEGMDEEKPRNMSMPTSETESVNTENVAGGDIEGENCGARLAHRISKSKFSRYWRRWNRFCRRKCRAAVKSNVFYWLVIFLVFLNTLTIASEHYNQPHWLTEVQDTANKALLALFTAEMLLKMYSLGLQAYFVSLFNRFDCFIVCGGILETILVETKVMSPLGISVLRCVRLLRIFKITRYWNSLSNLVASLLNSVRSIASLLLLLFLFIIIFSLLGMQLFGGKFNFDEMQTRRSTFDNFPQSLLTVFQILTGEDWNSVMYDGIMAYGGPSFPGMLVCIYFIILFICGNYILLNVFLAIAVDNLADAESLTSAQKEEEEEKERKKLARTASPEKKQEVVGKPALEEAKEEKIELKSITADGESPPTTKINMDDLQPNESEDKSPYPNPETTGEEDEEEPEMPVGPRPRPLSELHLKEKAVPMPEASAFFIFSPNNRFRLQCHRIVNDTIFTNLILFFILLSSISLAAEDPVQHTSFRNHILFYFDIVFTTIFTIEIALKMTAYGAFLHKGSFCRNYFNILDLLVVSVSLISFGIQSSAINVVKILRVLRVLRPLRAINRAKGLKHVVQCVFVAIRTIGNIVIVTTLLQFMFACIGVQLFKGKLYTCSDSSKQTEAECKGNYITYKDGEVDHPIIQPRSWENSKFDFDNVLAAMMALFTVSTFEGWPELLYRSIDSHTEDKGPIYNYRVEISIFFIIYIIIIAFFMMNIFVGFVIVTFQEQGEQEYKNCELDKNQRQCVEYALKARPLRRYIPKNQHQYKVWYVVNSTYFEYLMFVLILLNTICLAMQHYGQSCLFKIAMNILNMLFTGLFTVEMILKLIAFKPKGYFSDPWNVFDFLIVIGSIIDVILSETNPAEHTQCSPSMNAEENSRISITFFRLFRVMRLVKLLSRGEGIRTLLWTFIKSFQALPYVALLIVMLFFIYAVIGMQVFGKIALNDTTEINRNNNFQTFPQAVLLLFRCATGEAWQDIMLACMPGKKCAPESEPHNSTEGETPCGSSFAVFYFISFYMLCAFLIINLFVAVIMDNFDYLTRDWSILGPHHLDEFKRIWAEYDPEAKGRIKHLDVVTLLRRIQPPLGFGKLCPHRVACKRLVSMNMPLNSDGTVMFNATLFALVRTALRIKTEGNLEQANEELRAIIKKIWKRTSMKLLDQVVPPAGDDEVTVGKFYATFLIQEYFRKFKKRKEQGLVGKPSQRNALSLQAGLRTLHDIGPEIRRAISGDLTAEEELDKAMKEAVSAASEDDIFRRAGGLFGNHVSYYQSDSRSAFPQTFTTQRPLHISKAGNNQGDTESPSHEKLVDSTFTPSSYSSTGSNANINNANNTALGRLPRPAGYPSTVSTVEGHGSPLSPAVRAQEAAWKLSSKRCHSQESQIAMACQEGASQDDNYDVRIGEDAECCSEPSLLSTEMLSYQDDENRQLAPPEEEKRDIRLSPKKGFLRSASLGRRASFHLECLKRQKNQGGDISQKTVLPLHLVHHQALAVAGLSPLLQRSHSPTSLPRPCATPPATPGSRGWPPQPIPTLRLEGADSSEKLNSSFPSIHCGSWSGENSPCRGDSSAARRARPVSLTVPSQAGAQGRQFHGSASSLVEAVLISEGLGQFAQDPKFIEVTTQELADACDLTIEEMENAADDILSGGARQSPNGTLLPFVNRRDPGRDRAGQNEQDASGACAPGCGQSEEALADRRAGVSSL
assay notes: Antagonist activity at rabbit Cav1.2 expressed in HEK293 cells assessed as inhibition of voltage pulse-induced calcium current by FLIPR calcium 4 assay
reported metric: pIC50
The read-out pIC50 is expressed as -log10 of concentration in moles per litre.

Input line: Which pIC50 value belongs to CCOC(=O)C1=C(C)NC(CCl)=C(C(=O)OCC)C1c1cccc([N+](=O)[O-])c1 (configuration not stated) ?
Output line: 8.00

Input line: Return reported pIC50; argument: C=C(C)C(=O)OCCOC(=O)C1=C(C)NC(C)=C(C(=O)OCC)C1c1cccc([N+](=O)[O-])c1 (configuration not stated)
Output line: 8.00

Input line: I have this compound here, COC(=O)C1=C(C)NC(C)=C(C(=O)OCCCOc2ccccc2)C1c1cccc([N+](=O)[O-])c1 (configuration not stated) , and I need its recorded pIC50.
Output line: 8.05

Input line: Which pIC50 is listed for C=CCOC(=O)C1=C(C)NC(C)=C(C(=O)OCC)C1c1ccc2ccccc2c1 (configuration not stated) ?
Output line: 5.88

Input line: Look at this compound and give its reported pIC50. COC(=O)C1=C(C)NC(C)=C(C(=O)OCC(F)(F)F)C1c1cccc([N+](=O)[O-])c1 (configuration not stated)
Output line: 7.80

Input line: Which pIC50 is reported for this compound? COC(=O)C1=C(C)NC(C)=C(C(=O)OCCCCc2ccccc2)C1c1cccc([N+](=O)[O-])c1 (configuration not stated)
Output line: 8.00

Input line: For the compound shown here, CCOC(=O)C1=C(C)NC(CN2CCN(c3ccccc3)CC2)=C(C(=O)OCC)C1c1cccc([N+](=O)[O-])c1 (configuration not stated) , give the reported pIC50.
Output line: 6.20

Input line: I would be grateful if you could share the reported pIC50 for COC(=O)C1=C(C)NC(C)=C(C(=O)OCC(C)[N+](=O)[O-])C1c1cccc([N+](=O)[O-])c1 (configuration not stated) .
Output line: 6.97

Input line: State the recorded pIC50 for this entry: COC(=O)C1=C(C)NC(C)=C(C(=O)OCc2ccc(-c3ccccc3)cc2)C1c1cccc([N+](=O)[O-])c1 (configuration not stated)
Output line: 7.16

Input line: Can you share its pIC50? I mean this compound: CCOC(=O)C1=C(C)NC(C)=C(C(=O)OC=O)C1c1cccc([N+](=O)[O-])c1 (configuration not stated)
Output line: 4.48

Input line: May I ask what pIC50 has been recorded for CCOC(=O)C1=C(C)NC(COC(C)=O)=C(C(=O)OCC)C1c1cccc([N+](=O)[O-])c1 (configuration not stated) ?
Output line: 8.00

Input line: Given the entry COC(=O)C1=C(C)NC(C)=C(C(=O)OCc2cc([N+](=O)[O-])cc([N+](=O)[O-])c2)C1c1cccc([N+](=O)[O-])c1 (configuration not stated) , report its measured pIC50.
Output line: 7.26

Input line: What does the data say about its pIC50? Entry: CCOC(=O)C1=C(C)NC(/C=C/C#N)=C(C(=O)OCC)C1c1cccc([N+](=O)[O-])c1 (configuration not stated)
Output line: 7.66

Input line: Recorded pIC50 for CCOC(=O)C1=C(C)NC(COC(=O)c2ccccc2)=C(C(=O)OCC)C1c1cccc([N+](=O)[O-])c1 (configuration not stated) , please?
Output line: 6.68

Input line: Given the entry COC(=O)C1=C(C)NC(C)=C(C(=O)OCc2ccc(OC)c(OC)c2)C1c1cccc([N+](=O)[O-])c1 (configuration not stated) , report its measured pIC50.
Output line: 6.95

Input line: Need pIC50, item COC(=O)C1=C(C)NC(C)=C(C(=O)OCC2CC2)C1c1cccc([N+](=O)[O-])c1 (configuration not stated)
Output line: 7.55

Where do these numbers come from? They come from ChEMBL document CHEMBL1158565.
